These measurements were taken from paper PMC6445160.

system: 20S proteasome β5 subunit, chymotrypsin-like (ChT-L) activity; construct: gene PSMB5; native 20S proteasome purified from lymphoblastoid cells; test: fluorogenic AMC peptide hydrolysis; format: biochemical; conditions: Suc-LLVY-AMC, 37 °C, 30 min, enzyme pretreated with compound; read-out: IC50 (μm)^aChT-L
pIC50: −log10 of the molar value.
value.kind: pIC50

# example entries with known answers
> print(dat)
                                   compound  value.kind  observed.value
1  Cc1c(O)cccc1C(=O)N[C@@H](CC(N)=O)C(=O)NCCNC1=C(Cl)C(=O)c2ccccc2C1=O       pIC50            5.07
2  O=C(N[C@@H](Cc1ccccc1)C(=O)NCCNC1=C(Cl)C(=O)c2ccccc2C1=O)c1ccccc1       pIC50            5.21
3  Cc1c(O)cccc1C(=O)N[C@@H](CC(N)=O)C(=O)NCCCCNC1=C(Cl)C(=O)c2ccccc2C1=O       pIC50            4.18

(1) O=C(N[C@@H](Cc1ccccc1)C(=O)NCCNC1=C(Cl)C(=O)c2ccccc2C1=O)c1ccc([N+](=O)[O-])cc1
(2) O=C(NC(CO)C(=O)NCCCCNC1=C(Cl)C(=O)c2ccccc2C1=O)c1ccc([N+](=O)[O-])cc1 (stereo not shown)
(3) NC(=O)C[C@H](NC(=O)c1ccccc1)C(=O)NCCNC1=C(Cl)C(=O)c2ccccc2C1=O
I would appreciate it if you could sort these 3 compounds by pIC50, starting from the smallest number. Put the labels in the requested order and write them down. 2, 3, 1
(2: 4.05, 3: 5.10, 1: 6.11)

(a) NC(=O)C[C@H](NC(=O)c1cccc2ccccc12)C(=O)NCCNC1=C(Cl)C(=O)c2ccccc2C1=O
(b) O=C(N[C@@H](CO)C(=O)NCCNC1=C(Cl)C(=O)c2ccccc2C1=O)c1ccccc1
(c) NC(=O)C[C@H](NC(=O)c1ccc([N+](=O)[O-])cc1)C(=O)NCCNC1=C(Cl)C(=O)c2ccccc2C1=O
Order these by pIC50, descending, and give the full ranking. Ranked list of labels, please, in the requested order. c, b, a
(c: 6.04, b: 4.62, a: 4.12)

---

tested on: 20S proteasome β2 subunit, trypsin-like (T-L) activity; construct: gene PSMB7; native 20S proteasome purified from lymphoblastoid cells; assay: fluorogenic AMC peptide hydrolysis; type: biochemical; details: Boc-LRR-AMC, 37 °C, 30 min, enzyme pretreated with compound
value.kind: IC50 (µM)

> print(dat)
                                 cpd.smiles  unit.info  observed.value
1  Cc1c(O)cccc1C(=O)N[C@@H](CC(N)=O)C(=O)NCCNC1=C(Cl)C(=O)c2ccccc2C1=O         µM            68.4
2  O=C1C(Cl)=C(NCCNC(=O)[C@H](Cc2ccccc2)NC(=O)c2cccc3ccccc23)C(=O)c2ccccc21         µM            49.8
3  Cc1c(O)cccc1C(=O)N[C@@H](CC(C)C)C(=O)NCCNC1=C(Cl)C(=O)c2ccccc2C1=O         µM            77.4
4  O=C1C(Cl)=C(NCCCCNC(=O)[C@H](Cc2ccccc2)NC(=O)c2cccc3ccccc23)C(=O)c2ccccc21         µM            79.7

(a) CC(C)C[C@H](NC(=O)c1ccccc1)C(=O)NCCNC1=C(Cl)C(=O)c2ccccc2C1=O
(b) CC(C)C[C@H](NC(=O)c1cccc2ccccc12)C(=O)NCCNC1=C(Cl)C(=O)c2ccccc2C1=O
Could you tell me which of a and b has the lower IC50 reading? Response format: the label of the selected entry. b

---

Tested on: 20S proteasome β2 subunit, trypsin-like (T-L) activity
Construct: gene PSMB7; native 20S proteasome purified from lymphoblastoid cells
Assay: fluorogenic AMC peptide hydrolysis
Format: biochemical
Conditions: Boc-LRR-AMC, 37 °C, 30 min, enzyme pretreated with compound
Text: fluorogenic AMC peptide hydrolysis on 20S proteasome β2 subunit, trypsin-like (T-L) activity
pIC50: −log10 of the molar value.
The entries below are paired with their reported pIC50.

Before answering, review these 3 worked examples.
> print(dat)
                                 cpd.smiles  observed.value
1  O=C1C(Cl)=C(NCCNC(=O)[C@H](CO)NC(=O)c2cccc3ccccc23)C(=O)c2ccccc21          < 4.00
2  Cc1c(O)cccc1C(=O)N[C@@H](CC(C)C)C(=O)NCCCCNC1=C(Cl)C(=O)c2ccccc2C1=O          < 4.00
3  Cc1c(O)cccc1C(=O)N[C@@H](CO)C(=O)NCCNC1=C(Cl)C(=O)c2ccccc2C1=O          < 4.00

Kindly review the next compound as well.
# lookup: pIC50 of Cc1c(O)cccc1C(=O)N[C@@H](Cc1ccccc1)C(=O)NCCNC1=C(Cl)C(=O)c2ccccc2C1=O < 4.00
